System: OVCAR-8
experimental-details: NCI tumour cell line growth inhibition, 48 h
Calls of active or inactive are those of the source. Rule as the data show it: active = GI50 up to about 1.1 µM and inactive = higher.
Listing of entries alongside the reported GI50.
measure: GI50

| molecule | measure | measured-result |
| --- | --- | --- |
| COC(=O)C12OCC34C(CC5C(C)=C(O)C(=O)CC5(C)C3C(O)C1O)OC(=O)C(OC(=O)C=C(C)C)C24 (stereo not given) | GI50 | > 500 µM (inactive) |
| COc1ccc(/N=N/C(=N\c2ccccc2)c2ccc(N(CCC#N)CCC#N)cc2)cc1 | GI50 | 45.3 µM (inactive) |
| CC(C)C1=C(Cc2ccccc2)C(=O)O/C1=C\c1cc(Cl)c(O)c(Cl)c1 | GI50 | 20.5 µM (inactive) |
| [N-]=[N+]=NI1OC(=O)c2ccccc21 | GI50 | > 100 µM (inactive) |
| CCN(CC)c1ccc2c(c1)Nc1cc(=C(C#N)C#N)c3ccccc3c1=N2 | GI50 | 61 µM (inactive) |

Data origin: ChEMBL document CHEMBL1201862
